tested target: T1, KGF (hKGF) (Homo sapiens, UniProt P21781 P21781:32-194)
T1 sequence: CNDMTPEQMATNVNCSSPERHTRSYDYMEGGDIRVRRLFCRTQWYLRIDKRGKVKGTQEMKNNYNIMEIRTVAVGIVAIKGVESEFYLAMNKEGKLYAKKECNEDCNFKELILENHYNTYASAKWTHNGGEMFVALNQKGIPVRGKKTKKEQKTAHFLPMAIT
assay method text: filter; DPBS, 37 C
test conditions: tags: Upstate Biotechnology; label: 32P
Would you kindly list Kd for each of these binders?
Respond with the bare value in nM.

Item: 10F (ssRNA, 2'-F pyrimidines) RNA: GGGAGGACGAUGCGGGACCAGAUGGCGGAUUUUUCAGCAAUCCUCCCCCGCUGCCCAGACGACUCGCCCGA | Kd: 0.47

Item: 41F (ssRNA, 2'-F pyrimidines) RNA: GGGAGGACGAUGCGGGGACUUUGACAGGCAUUGAUUUCGACCUGUUCCCCGUGGCCAGACGACUCGCCCGA | Kd: 1.44

Item: 53F (ssRNA, 2'-F pyrimidines) RNA: GGGAGGACGAUGCGGAUCAAAAGCACUCAUUCCCGUGCUCGCUUCAUUGGUCCCCCAGACGACUCGCCCGA | Kd: 0.7

Item: 10N (ssRNA, 2'-NH2 pyrimidines) RNA: GGGAGGACGAUGCGGUAGCUGCUGUCAUGCAAGACACUAGAAGAUUAAGAUGGGGCAGACGACUCGCCCGA | Kd: 1.1

Item: 71N (ssRNA, 2'-NH2 pyrimidines) RNA: GGGAGGACGAUGCGGAAACGGCGUGGCAAAAGUGAGGGGGUAGGAUGUACCAUGGGUCAGACGACUCGCCCGA | Kd: 3.52

Item: 1N (ssRNA, 2'-NH2 pyrimidines) RNA: GGGAGGACGAUGCGGGAAGGGACGAUAAAGAGGAAUCGAACAACAAGUGGCUGGCCAGACGACUCGCCCGA | Kd: 0.51

Item: 35N (ssRNA, 2'-NH2 pyrimidines) RNA: GGGAGGACGAUGCGGGCUUAGGGAAAUGGUUCUGAGGUGGUCAGACGACUCGCCCGA | Kd: 2.32

Item: 23F (ssRNA, 2'-F pyrimidines) RNA: GGGAGGACGAUGCGGCCCUACCACUUUUUCCCUCUACUGUUAUCCUGUCCCCCAGACGACUCGCCCGA | Kd: 2.52

Item: GGGAGGACGAUGCGGAUGGAGCUGAAAUCAGACGACUCGCCCGA (ssRNA, 2'-NH2 pyrimidines) [22N] | Kd: 5.7

Item: 8F (ssRNA, 2'-F pyrimidines) RNA: GGGAGGACGAUGCGGUUUCGAAUAGGGCCAUUUCUCACUAGCUAUCCUACCCUGCCCAGACGACUCGCCCGA | Kd: 2.63

Item: 11F (ssRNA, 2'-F pyrimidines) RNA: GGGAGGACGAUGCGGUGAUGGCGACCAGUCAAACCGGUGCUUUUACUCCCCCGCCAGACGACUCGCCCGA | Kd: 3.74

Item: 57F (ssRNA, 2'-F pyrimidines) RNA: GGGAGGACGAUGCGGUGACUAUCUGGCUCGAUCCAAUCACCCGAGCCCACCGCGCCAGACGACUCGCCCGA | Kd: 1.2

Each recorded value in this set is attributed to patent US20030180744.
